Reference for the values: PubChem BioAssay

assay.details: human hepatoma cell viability loss – ATP luminescence, cytotoxicity control for P. falciparum antimalarial project, primary screen (AID 2303);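 also: 0% = DMSO wells and 100% = digitonin-killed cells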
applied.conditions: HepG2 viability, 24-48 h, at 10 µM, active compounds read high
inhibition strictly under 20% means label 1; at 20% or over means label 0.

Past entries and their recorded results:
>>> category_label("CC(C(=O)NC1CCN(c2ccnc(Nc3ccc(F)cc3)n2)C1)c1ccc(Cl)cc1 (centres undefined)")
"label 1"
>>> category_label("CCCN1CCN(c2ccccc2NS(=O)(=O)c2ccc(C(=O)Nc3ccc(Cl)cc3)cc2)CC1")
"label 1"
>>> category_label("CC(Cc1ccc(C(=O)Nc2ccc(CC(C)NCCc3cccc(Cl)c3)cc2)cc1)NCCc1ccc(C(F)(F)F)cc1 (centres undefined)")
"label 0"

Query: Decide: inhibition of N#Cc1ccc(NC(=NC2CCN(Cc3ccccc3)CC2)Nc2ccccc2Cl)c(O)c1 strictly below 20%?
Response: label 0

Query: Also need COc1ccc2nccc(N3CCCN(CCNS(=O)(=O)c4ccc5c(c4)NC(=O)CS5)CC3)c2n1 , thanks.
Response: label 1

Query: Also need CC(=O)Nc1ncc(C(=O)Nc2cccc(-c3cccc(-c4nc5c(C)cccc5[nH]4)c3)c2)s1 , thanks.
Response: label 1

Query: Also need CCOC(=O)c1ccc(NC(=O)Nc2ccc(-c3cccc(-c4nc5c(C)cccc5[nH]4)c3)cc2)cc1 , thanks.
Response: label 0

Query: Also need Cc1nc2c(c(O)c1Cl)-c1ccc(Oc3cccc(C(F)(F)F)c3)cc1C2=O , thanks.
Response: label 0

Query: Also need COc1ccc2c(NN=Cc3ccc(F)cc3)ccnc2c1 , thanks.
Response: label 1

Query: Also need CS(=O)(=O)c1ccc2c(c1)CCN(CCC1CCC(NC(=O)C(=Cc3ccc(Cl)cc3Cl)c3ccc(-c4ccccc4)cc3)CC1)CC2 (centres undefined) , thanks.
Response: label 0

Query: Also need COc1ccc2nc(/C=C/c3cccc4ccc(C)nc34)[nH]c2c1 , thanks.
Response: label 0

Query: Also need Cc1cc(C2CCN(CCCCNC(=O)c3ccc(-c4ccc(C(F)(F)F)cc4)cc3)CC2)c(C)cc1OCCO , thanks.
Response: label 0

Query: Also need Cc1cc(N[C@@H](Cc2ccccc2)C(=O)NCc2cccs2)nc(NCCc2ccc(F)cc2)n1 , thanks.
Response: label 1

Query: Also need Cc1cc(NC(=O)c2cccs2)ccc1OC1CCN(Cc2ccc(F)cc2)CC1 , thanks.
Response: label 1

Query: Also need Cc1cc(OCC2CCN(c3ncc(C(=O)NC4CC4)cc3Cl)CC2)ccc1F , thanks.
Response: label 1

Query: Also need Cc1cccc2[nH]c(-c3ccc(-c4cccc(CN5CCCC(O)C5)c4)s3)nc12 (centres undefined) , thanks.
Response: label 1

Query: Also need CS(=O)(=O)c1ccc(-c2nc(NCC3CCCCC3)cc(C(F)(F)F)n2)cc1 , thanks.
Response: label 1

Query: Also need CCOC(=O)CCCc1cc(NC2CCN(C)CC2)nc(Nc2ccc(OC)cc2)n1 , thanks.
Response: label 0

Query: Also need COc1ccc(-c2cccc(CNC3CCN(CC4Cn5c(=O)ccc6ccc(F)c4c65)CC3)c2)cc1 (centres undefined) , thanks.
Response: label 0
